# System: HCT-116
# method.summary: NCI tumour cell line growth inhibition, 48 h
Active and inactive are the calls of the source. No stated cut-off is given here; in the data, active = GI50 up to about 1.1 µM and inactive = higher.
measurement.label: GI50

Answered examples (5):
compound	target.system	measurement.label	test.result
C=CC1(c2ccc(Cl)c(Cl)c2)OCCO1	HCT-116	GI50	97.7 µM (inactive)
O=C(Nc1ccc(Cl)c(Cl)c1)OCCN1c2ccccc2Sc2ccccc21	HCT-116	GI50	> 10 µM (inactive)
O=c1[nH]cc(-c2c[nH]c3ccccc23)nc1-c1c[nH]c2ccccc12	HCT-116	GI50	10.8 µM (inactive)
COC(=O)c1csnn1	HCT-116	GI50	> 100 µM (inactive)
Cc1cc(C)c2c(c1)C(=O)/C(=C/c1ccccc1C(=O)O)C2	HCT-116	GI50	63 µM (inactive)

We next turn to a different compound, shown below.
Hello, I am looking for reported GI50 with HCT-116 for CN1CCCOC(c2ccc(Cl)cc2)O1 (stereo unspecified) . Could you help?
> 100 µM (inactive)
